Listed below: IC50 (pM) pSTAT1 Inhibition values for each entry.
target: Human IFNβ (mature human interferon beta) (human, UniProt P01574 22-187); test: cell-based or functional assay
Sequence (P01574 22-187): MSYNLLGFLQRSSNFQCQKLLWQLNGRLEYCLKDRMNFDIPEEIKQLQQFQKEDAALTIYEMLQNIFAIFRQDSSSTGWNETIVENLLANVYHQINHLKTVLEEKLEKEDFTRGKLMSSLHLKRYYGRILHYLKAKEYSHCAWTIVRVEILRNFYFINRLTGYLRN

binder | IC50 (pM) pSTAT1 Inhibition
CTI-AF15 (antibody, human IgG1, kappa, V domains shown) VH: QVQLVQSGAEVKKPGSSVKVSCKASGYTFSRYWMHWVRQAPGQGLEWMGHIDPSDSYTYYNQKFKGRVTITADESTSTAYMELSSLRSEDTAVYYCARWDYGNLLFEYWGQGTLVTVSS VL: DIQMTQSPSSLSASVGDRVTITCRTSQDISSYLNWYQQKPGKAFKLLIYSTSRLHSGVPSRFSGSGSGTDFTLTISSLQPEDFATYYCQQGIILPITFGGGTKVEIKR | 80 pM
CTI-AF20 (antibody, human IgG1, kappa, V domains shown) VH: QVQLVQSGAEVKKPGSSVKVSCKASGYTFSRYWMHWVRQAPGQGLEWMGHIDPSDSYTYYNQKFKGRVTITADESTSTAYMELSSLRSEDTAVYYCARWDYGNLLFEYWGQGTLVTVSS VL: DIQMTQSPSSLSASVGDRVTITCRTSQDISSYLNWYQQKPGKAFKLLIYTTSRLRSGVPSRFSGSGSGTDFTLTISSLQPEDFATYYCQQGIVLPITFGGGTKVEIKR | 20 pM
CTI-AF5 (antibody, human IgG1, kappa, V domains shown) VH: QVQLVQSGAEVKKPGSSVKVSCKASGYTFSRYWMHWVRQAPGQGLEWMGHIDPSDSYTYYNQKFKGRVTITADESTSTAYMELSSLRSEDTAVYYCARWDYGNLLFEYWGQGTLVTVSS VL: DIQMTQSPSSLSASVGDRVTITCRTSQDISNYLNWYQQKPGKAFKLLIYTTSRLRSGVPSRFSGSGSGTDFTLTISSLQPEDFATYYCQQGIVLPITFGGGTKVEIKR | 10 pM
